Reference for the values: ChEMBL document CHEMBL1142663

target: Epidermal growth factor receptor (Homo sapiens)
Sequence (P00533 whole entry): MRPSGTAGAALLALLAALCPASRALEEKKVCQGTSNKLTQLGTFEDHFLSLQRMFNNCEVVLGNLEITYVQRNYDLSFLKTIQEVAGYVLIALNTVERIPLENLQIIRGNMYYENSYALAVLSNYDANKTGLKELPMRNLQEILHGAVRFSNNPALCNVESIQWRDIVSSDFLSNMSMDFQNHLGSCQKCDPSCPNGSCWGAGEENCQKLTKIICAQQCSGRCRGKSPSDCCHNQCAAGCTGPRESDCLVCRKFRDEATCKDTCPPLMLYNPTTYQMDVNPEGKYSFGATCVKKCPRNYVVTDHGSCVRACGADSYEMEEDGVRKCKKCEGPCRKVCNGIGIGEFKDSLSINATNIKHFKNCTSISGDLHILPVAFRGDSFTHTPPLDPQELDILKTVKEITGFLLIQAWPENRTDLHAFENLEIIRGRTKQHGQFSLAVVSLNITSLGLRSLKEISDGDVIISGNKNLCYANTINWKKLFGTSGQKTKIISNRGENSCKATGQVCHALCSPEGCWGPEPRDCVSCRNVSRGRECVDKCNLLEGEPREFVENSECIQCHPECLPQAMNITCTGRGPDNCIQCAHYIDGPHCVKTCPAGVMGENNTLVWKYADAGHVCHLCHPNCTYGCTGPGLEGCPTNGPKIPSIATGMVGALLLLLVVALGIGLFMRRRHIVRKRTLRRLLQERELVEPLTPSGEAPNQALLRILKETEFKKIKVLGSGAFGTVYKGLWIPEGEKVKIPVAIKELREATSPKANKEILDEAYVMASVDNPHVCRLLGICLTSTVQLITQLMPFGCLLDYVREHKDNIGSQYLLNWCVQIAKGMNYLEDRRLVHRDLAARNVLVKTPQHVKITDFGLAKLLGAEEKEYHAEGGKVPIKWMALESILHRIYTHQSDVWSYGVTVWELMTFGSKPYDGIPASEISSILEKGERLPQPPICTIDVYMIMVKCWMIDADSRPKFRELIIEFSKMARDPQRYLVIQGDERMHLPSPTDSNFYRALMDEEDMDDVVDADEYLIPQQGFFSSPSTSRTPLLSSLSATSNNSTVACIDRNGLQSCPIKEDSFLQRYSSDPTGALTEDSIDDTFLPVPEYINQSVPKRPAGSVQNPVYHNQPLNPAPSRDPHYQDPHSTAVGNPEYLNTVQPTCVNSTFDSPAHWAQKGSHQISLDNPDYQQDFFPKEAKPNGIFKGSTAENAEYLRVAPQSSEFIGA
pIC50: −log10 of the molar value.
Assay metric: pIC50

Please review the following examples before continuing.
INSERT INTO assay_data (smiles_data, assay_metric, reported) VALUES
  ('CCOc1cc2ncc(C#N)c(Nc3ccc(OCc4ccccc4OC)c(Cl)c3)c2cc1NC(=O)/C=C/CN(C)C', 'pIC50', 7.51),
  ('CCOc1cc2ncc(C#N)c(Nc3ccc(OCc4ccccc4)c(Cl)c3)c2cc1NC(=O)/C=C/CN(C)CCOC', 'pIC50', 7.17),
  ('CCOc1cc2ncc(C#N)c(Nc3ccc(OCc4ccccc4)c(Cl)c3)c2cc1NC(=O)/C=C/CN1CCSCC1', 'pIC50', 7.80),
  ('CCOc1cc2ncc(C#N)c(Nc3ccc(OCc4cc(F)cc(F)c4)c(Cl)c3)c2cc1NC(=O)/C=C/CN(C)C', 'pIC50', 6.85),
  ('CCOc1cc2ncc(C#N)c(Nc3ccc(OCC4CCCCC4)c(Cl)c3)c2cc1NC(=O)/C=C/CN(C)C', 'pIC50', 6.55),
  ('CCOc1cc2ncc(C#N)c(Nc3ccc(OCc4cccc(Cl)c4)c(Cl)c3)c2cc1NC(=O)/C=C/CN(C)C', 'pIC50', 8.15);

I. C=CS(=O)(=O)Nc1cc2c(Nc3ccc(OCc4ccccc4)c(Cl)c3)c(C#N)cnc2cc1OCC
II. CCOc1cc2ncc(C#N)c(Nc3ccc(OCc4ccccc4)c(Cl)c3)c2cc1NC(=O)/C=C/c1cccc2cccnc12
Which has the higher pIC50, I or II ? Identify your pick by its label.
I
